Source listed as patent US8835428B2.

Target: hDGAT1 (Homo sapiens)
Construct: host or cells: Sf9 insect cells (baculovirus); microsomal preparation
Sequence (O75907 1-488): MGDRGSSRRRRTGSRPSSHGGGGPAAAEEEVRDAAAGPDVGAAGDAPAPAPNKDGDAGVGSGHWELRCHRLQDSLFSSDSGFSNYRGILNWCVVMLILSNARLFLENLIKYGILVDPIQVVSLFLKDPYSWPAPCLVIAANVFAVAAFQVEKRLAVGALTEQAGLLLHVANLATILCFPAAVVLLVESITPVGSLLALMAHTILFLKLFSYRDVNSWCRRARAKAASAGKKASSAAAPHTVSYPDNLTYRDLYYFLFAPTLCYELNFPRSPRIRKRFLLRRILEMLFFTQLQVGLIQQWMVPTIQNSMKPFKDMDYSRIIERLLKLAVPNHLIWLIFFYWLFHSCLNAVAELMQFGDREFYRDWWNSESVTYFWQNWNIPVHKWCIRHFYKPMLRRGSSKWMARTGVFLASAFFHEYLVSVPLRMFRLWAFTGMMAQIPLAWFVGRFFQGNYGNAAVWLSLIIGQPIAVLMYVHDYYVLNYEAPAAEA
Assay: In-vitro DGAT1 assay (hDGAT1 microsomes from Sf9 cells, 14C oleoyl CoA, triglyceride formation)
Format: biochemical
Details: At 5 μM
# key: entry, value: inhibition at 5 µM

| COMPOUND | inhibition at 5 µM |
| --- | --- |
| CC(C)C(NC(=O)c1cc(-c2ccc(NC(=O)Nc3ccc(-c4cc(C(=O)NC(C(=O)O)C(C)C)on4)cc3)cc2)no1)C(=O)O (stereo not shown) [Example 282] | 0 to 50% |

Noted for COC(=O)[C@@H](NC(=O)c1cc(-c2ccc(NC(=S)Nc3ccccc3F)cc2)no1)C(C)C [Example 269] : its inhibition at 5 µM reads 0 to 50%

Noted for COC(=O)C(Cc1ccccc1)NC(=O)c1cc(-c2ccc(NC(=O)Nc3ccccc3F)cc2)no1 (stereo not shown) [Example 241] : its inhibition at 5 µM reads 0 to 50%
